# Test system: LOX IMVI melanoma
# Test method notes: NCI tumour cell line growth inhibition, 48 h

{"columns": ["Compound", "Unit annotation", "Readout relation", "TGI"],
 "data": [
  ["C=CCC1(OCc2ccccc2)C(=O)C(=O)OC1C1COC(C)(C)O1 (stereo not given)", "µM", ">", 100],
  ["CCN(CC)CC1c2ccccc2C(CNc2ccccc2)N1C (stereo not given)", "µM", ">", 100],
  ["CC1=NC(=Cc2cccc(Cl)c2)C(=O)N1n1c(-c2ccccc2)nc2ccccc2c1=O", "µM", "=", 55.2],
  ["Cc1ccc(/C=C/C(=O)C(C)(C)CN2CCCCC2)cc1", "µM", "=", 23.4],
  ["COC1C=COC2(C)Oc3c(C)c(O)c4c(c3C2=O)/C(=N/C2CCC(O)OC2C)C=C(NC(=O)/C(C)=C\\C(=O)C2CC2C(O)C(C)C(O)C(C)C(OC(C)=O)C1C)C4=O (stereo not given)", "µM", "=", 3.24]
]}
